Assay: Cmax in healthy human at 25 mg, po
Type: ADME, organism-based
Design: dose 25 mg, route oral
Details: in vivo
test_readout: Cmax (ng/mL)
Give the value in ng/mL but do not write ng/mL after it.

## Input Would you kindly share the measured Cmax for CCOc1ccc(Cc2cc([C@]34OC[C@](CO)(O3)[C@@H](O)[C@H](O)[C@H]4O)ccc2Cl)cc1 ?
## Output 490

====

Assay: Terminal half life in healthy human at 25 mg, po
Assay type: ADME, organism-based
Conditions: in vivo, read-out: beta t1/2 (converted)
test_readout: half-life (h)
Give your result in h as a bare value.

## Input Which half-life reading was recorded for the molecule CCOc1ccc(Cc2cc([C@]34OC[C@](CO)(O3)[C@@H](O)[C@H](O)[C@H]4O)ccc2Cl)cc1 ?
## Output 16.9

====

Assay: Drug excretion in healthy human urine treated with [14C]-ertugliflozin at 25 mg, po by HPLC-radiocardiogram analysis
Format: ADME, organism-based
Conditions: in vivo
test_readout: Drug excretion (%)
Give the value, in units of %, as a plain number.

Answered examples (3):
compound | unit_label | endpoint_result
CCOc1ccc(Cc2cc([C@]34OC[C@](CO)(O3)[C@@H](O)[C@H](O)[C@H]4O[C@@H]3O[C@H](C(=O)O)[C@@H](O)[C@H](O)[C@H]3O)ccc2Cl)cc1 | % | 5.7
OC[C@@]12CO[C@@](c3ccc(Cl)c(Cc4ccc(O)cc4)c3)(O1)[C@H](O)[C@@H](O)[C@@H]2O | % | 0.4
CCOc1ccc(Cc2cc([C@]34OC[C@](CO)(O3)[C@@H](O)[C@H](O[C@@H]3O[C@H](C(=O)O)[C@@H](O)[C@H](O)[C@H]3O)[C@H]4O)ccc2Cl)cc1 | % | 31.7

## Input Could you tell me which Drug excretion is on file for CCOc1ccc(C(O)c2cc([C@]34OC[C@](CO)(O3)[C@@H](O)[C@H](O)[C@H]4O)ccc2Cl)cc1 (mixture of isomers) ?
## Output 0.7

====

System: Liver microsome
Assay: Metabolic stability in human liver microsomes assessed as retention time treated with 10 µM ertugliflozin by HPLC analysis
test_readout: Retention_time
Please make sure the unit comes right after the number.

See these solved cases before continuing.
molecule | Retention_time
CCOc1ccc(Cc2cc([C@]34OC[C@](CO)(O3)[C@@H](O)[C@H](O[C@@H]3O[C@H](C(=O)O)[C@@H](O)[C@H](O)[C@H]3O)[C@H]4O)ccc2Cl)cc1 | 34.3 min
OC[C@@]12CO[C@@](c3ccc(Cl)c(Cc4ccc(O)cc4)c3)(O1)[C@H](O)[C@@H](O)[C@@H]2O | 27.2 min
CCOc1ccc(Cc2cc([C@]34OC[C@](CO)(O3)[C@@H](O)[C@H](O)[C@H]4O[C@@H]3O[C@H](C(=O)O)[C@@H](O)[C@H](O)[C@H]3O)ccc2Cl)cc1 | 29.4 min

## Input Give its Retention_time value. Item: CCOc1ccc(C(O)c2cc([C@]34OC[C@](CO)(O3)[C@@H](O)[C@H](O)[C@H]4O)ccc2Cl)cc1 (mixture of isomers)
## Output 27.9 min

====

Test system: Plasma
Assay: Drug metabolism in healthy human plasma treated with [14C]-ertugliflozin at 25 mg, po by HPLC-radiocardiogram analysis
Assay type: ADME, organism-based
Conditions: in vivo
test_readout: Drug metabolism (%)
Respond numerically; units are % and should not be typed.

Worked cases, answers included:
molecule | target_of_assay | endpoint_result
CCOc1ccc(C(O)c2cc([C@]34OC[C@](CO)(O3)[C@@H](O)[C@H](O)[C@H]4O)ccc2Cl)cc1 (mixture of isomers) | Plasma | 2.5
OC[C@@]12CO[C@@](c3ccc(Cl)c(Cc4ccc(O)cc4)c3)(O1)[C@H](O)[C@@H](O)[C@@H]2O | Plasma | 1.3
CCOc1ccc(Cc2cc([C@]34OC[C@](CO)(O3)[C@@H](O)[C@H](O)[C@H]4O[C@@H]3O[C@H](C(=O)O)[C@@H](O)[C@H](O)[C@H]3O)ccc2Cl)cc1 | Plasma | 12.2

Now let's try a different one.
## Input Fill in: Drug metabolism of CCOc1ccc(Cc2cc([C@]34OC[C@](CO)(O3)[C@@H](O)[C@H](O[C@@H]3O[C@H](C(=O)O)[C@@H](O)[C@H](O)[C@H]3O)[C@H]4O)ccc2Cl)cc1 is ___
## Output 24.1

====

System: Homo sapiens
Assay: AUC (0 to infinity) in healthy human at 25 mg, po
Type: ADME, organism-based, Plasma
Design: dose 25 mg, time infinity, route oral
Settings: in vivo
test_readout: AUC (ng·h/mL)
Response body: numeric value in ng·h/mL, unit text excluded.

## Input Please report the recorded AUC for CCOc1ccc(Cc2cc([C@]34OC[C@](CO)(O3)[C@@H](O)[C@H](O)[C@H]4O)ccc2Cl)cc1 .
## Output 2800

====

Experiment: Tmax in healthy human at 25 mg, po
Format: ADME, organism-based
Settings: in vivo
test_readout: Tmax
Write the figure, then the unit, nothing else.

## Input I'd like to know its Tmax. The compound in question is CCOc1ccc(Cc2cc([C@]34OC[C@](CO)(O3)[C@@H](O)[C@H](O)[C@H]4O)ccc2Cl)cc1 [ERTUGLIFLOZIN]
## Output 1 h

====

Test system: Homo sapiens
Assay: Total drug excretion in healthy human treated with [14C]-ertugliflozin at 25 mg, po by HPLC-radiocardiogram analysis
Type: ADME, organism-based
Settings: in vivo
test_readout: Drug excretion

molecule | Drug excretion
CCOc1ccc(Cc2cc([C@]34OC[C@](CO)(O3)[C@@H](O)[C@H](O[C@@H]3O[C@H](C(=O)O)[C@@H](O)[C@H](O)[C@H]3O)[C@H]4O)ccc2Cl)cc1 | 31.7%
CCOc1ccc(Cc2cc([C@]34OC[C@](CO)(O3)[C@@H](O)[C@H](O)[C@H]4O[C@@H]3O[C@H](C(=O)O)[C@@H](O)[C@H](O)[C@H]3O)ccc2Cl)cc1 | 5.7%
OC[C@@]12CO[C@@](c3ccc(Cl)c(Cc4ccc(O)cc4)c3)(O1)[C@H](O)[C@@H](O)[C@@H]2O | 1.4%

Consider now this further molecule.
## Input What reported Drug excretion corresponds to CCOc1ccc(C(O)c2cc([C@]34OC[C@](CO)(O3)[C@@H](O)[C@H](O)[C@H]4O)ccc2Cl)cc1 (mixture of isomers) on Homo sapiens?
## Output 2.4%

====

Assay: Terminal elimination half life in human at 0.5 to 300 mg, po
Type: ADME, organism-based
Settings: in vivo, read-out: beta t1/2 (converted)
test_readout: half-life (h)
A number alone suffices; assume h.

## Input Request the reported half-life associated with CCOc1ccc(Cc2cc([C@]34OC[C@](CO)(O3)[C@@H](O)[C@H](O)[C@H]4O)ccc2Cl)cc1 [ERTUGLIFLOZIN]
## Output 11

====

Test: Drug level in bile duct-cannulated dog bile at 10 mg/kg, po
Type: ADME, organism-based, Canis lupus familiaris
Set-up: dose 10 mg/kg, route oral
Conditions: read-out: Drug uptake
test_readout: dose excreted
Write the numeric value and follow it with the unit.

## Input Which dose excreted is reported for this molecule? CCOc1ccc(Cc2cc([C@]34OC[C@](CO)(O3)[C@@H](O)[C@H](O)[C@H]4O)ccc2Cl)cc1 [ERTUGLIFLOZIN]
## Output 9.6%

====

Experiment: Drug level in bile duct-cannulated rat bile at 25 mg/kg, po
Assay type: ADME, organism-based
Set-up: dose 25 mg/kg, route oral
Conditions: read-out: Drug uptake
test_readout: dose excreted (%)
Entry rule: numbers only, all in %.

## Input Look up dose excreted for this compound: CCOc1ccc(Cc2cc([C@]34OC[C@](CO)(O3)[C@@H](O)[C@H](O)[C@H]4O)ccc2Cl)cc1 [ERTUGLIFLOZIN]
## Output 2.4

====

Assay: Oral bioavailability in beagle dog at 2 mg/kg
Format: ADME, organism-based, Canis lupus familiaris
Conditions: in vivo
test_readout: bioavailability (%)
Reply with just the number (in %).

## Input bioavailability lookup needed for CCOc1ccc(Cc2cc([C@]34OC[C@](CO)(O3)[C@@H](O)[C@H](O)[C@H]4O)ccc2Cl)cc1 , thanks.
## Output 94
